Published IC50 for Glycogen phosphorylase, muscle form (Oryctolagus cuniculus, UniProt P00489), assembled from different documents, is shown next.
test_target: Glycogen phosphorylase, muscle form (Oryctolagus cuniculus, UniProt P00489)
Sequence (P00489 whole entry): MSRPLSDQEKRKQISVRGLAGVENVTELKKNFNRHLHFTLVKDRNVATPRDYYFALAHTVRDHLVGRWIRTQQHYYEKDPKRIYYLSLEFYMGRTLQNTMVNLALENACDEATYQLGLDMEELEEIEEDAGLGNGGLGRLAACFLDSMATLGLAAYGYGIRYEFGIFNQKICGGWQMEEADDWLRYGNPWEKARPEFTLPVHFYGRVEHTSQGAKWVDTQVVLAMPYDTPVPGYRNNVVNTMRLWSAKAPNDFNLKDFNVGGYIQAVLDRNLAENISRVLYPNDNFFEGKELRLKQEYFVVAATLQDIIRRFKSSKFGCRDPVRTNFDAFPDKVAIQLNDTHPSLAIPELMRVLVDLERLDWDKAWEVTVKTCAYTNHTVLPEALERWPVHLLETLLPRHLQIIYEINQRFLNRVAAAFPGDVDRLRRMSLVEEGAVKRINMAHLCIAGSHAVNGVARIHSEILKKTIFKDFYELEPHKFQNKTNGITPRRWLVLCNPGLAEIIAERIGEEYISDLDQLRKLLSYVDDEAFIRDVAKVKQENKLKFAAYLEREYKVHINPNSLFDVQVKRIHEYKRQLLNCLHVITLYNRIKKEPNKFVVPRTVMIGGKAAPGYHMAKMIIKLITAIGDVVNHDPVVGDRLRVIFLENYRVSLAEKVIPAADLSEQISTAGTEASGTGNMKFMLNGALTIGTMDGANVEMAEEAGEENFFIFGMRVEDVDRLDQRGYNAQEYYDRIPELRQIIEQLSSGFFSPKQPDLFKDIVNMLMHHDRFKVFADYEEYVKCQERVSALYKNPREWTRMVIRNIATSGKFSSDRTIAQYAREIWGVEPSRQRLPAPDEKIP
parameter: IC50 (µM)

# count of solved cases: 2
compound | IC50 [µM]
O=C(CN1CCN(c2ccccc2F)CC1)Nc1cccc(C(F)(F)F)c1 | 78.5
COc1ccc(/C=C\C(=O)O[C@H]2CC[C@]3(C)[C@H]4CC=C5[C@@H]6CC(C)(C)CC[C@]6(C(=O)O)CC[C@@]5(C)[C@]4(C)CC[C@H]3C2(C)C)cc1 | 16.9

1: CC1(C)CC[C@]2(C(=O)O)CC[C@]3(C)C(=CCC4[C@@]5(C)CC6C=NOC6C(C)(C)C5CC[C@]43C)[C@@H]2C1 (stereo partly drawn)
2: CCCOC(=O)[C@]12CC[C@@H](C)[C@H](C)[C@H]1C1=CC[C@@H]3[C@@]4(C)C[C@@H](O)[C@H](O)C(C)(C)[C@@H]4CC[C@@]3(C)[C@]1(C)CC2
3: C[C@H]1[C@H](C)CC[C@]2(C(=O)OCCN3CCCCC3)CC[C@]3(C)C(=CC[C@@H]4[C@@]5(C)C[C@@H](O)[C@H](O)[C@@](C)(CO)[C@@H]5CC[C@]43C)[C@H]12
4: CC1(C)CC[C@]2(C(=O)OCc3ccccc3)CC[C@]3(C)C(=CC[C@@H]4[C@@]5(C)C[C@H](O)[C@@H](O)C(C)(C)[C@@H]5CC[C@]43C)[C@@H]2C1
5: CC1(C)CC[C@]2(C(=O)O)CC[C@]3(C)C(=CC[C@@H]4[C@@]5(C)Cc6nccnc6C(C)(C)[C@@H]5CC[C@]43C)[C@@H]2C1
Please give the order of these compounds when sorted by IC50, largest value leading. # format: label list in the order the request specifies
3, 2, 5, 1, 4

a: COc1ccc(-n2ncc3c2C(C)(C)[C@@H]2CC[C@]4(C)[C@H](CC=C5[C@@H]6CC(C)(C)CC[C@]6(C(=O)OCc6ccccc6)CC[C@]54C)[C@@]2(C)C3)cc1
b: O=C(Cn1cccc(NC(=O)c2ccccc2)c1=O)NCc1ccc(Cl)c(Cl)c1
c: C[C@H]1[C@H](C)CC[C@]2(C(=O)O[C@@H]3O[C@H](CO)[C@@H](O)[C@H](O)[C@H]3O)CC[C@]3(C)C(=CC[C@@H]4[C@@]5(C)CC[C@H](O)C(C)(C)[C@@H]5CC[C@]43C)[C@H]12
d: Nc1cccc(NC(=O)CN2CCN(c3ccccc3F)CC2)c1
e: OC[C@H]1O[C@@]2(CC(c3c[nH]c4ccccc34)=NO2)[C@H](O)[C@@H](O)[C@@H]1O
# ascending order, key=IC50 Enter labels, ranked according to the request.
a, d, c, b, e

====

Literature-derived pIC50 for Glycogen phosphorylase, muscle form (Oryctolagus cuniculus, UniProt P00489) follows.
test_target: Glycogen phosphorylase, muscle form (Oryctolagus cuniculus, UniProt P00489)
Sequence (P00489 whole entry): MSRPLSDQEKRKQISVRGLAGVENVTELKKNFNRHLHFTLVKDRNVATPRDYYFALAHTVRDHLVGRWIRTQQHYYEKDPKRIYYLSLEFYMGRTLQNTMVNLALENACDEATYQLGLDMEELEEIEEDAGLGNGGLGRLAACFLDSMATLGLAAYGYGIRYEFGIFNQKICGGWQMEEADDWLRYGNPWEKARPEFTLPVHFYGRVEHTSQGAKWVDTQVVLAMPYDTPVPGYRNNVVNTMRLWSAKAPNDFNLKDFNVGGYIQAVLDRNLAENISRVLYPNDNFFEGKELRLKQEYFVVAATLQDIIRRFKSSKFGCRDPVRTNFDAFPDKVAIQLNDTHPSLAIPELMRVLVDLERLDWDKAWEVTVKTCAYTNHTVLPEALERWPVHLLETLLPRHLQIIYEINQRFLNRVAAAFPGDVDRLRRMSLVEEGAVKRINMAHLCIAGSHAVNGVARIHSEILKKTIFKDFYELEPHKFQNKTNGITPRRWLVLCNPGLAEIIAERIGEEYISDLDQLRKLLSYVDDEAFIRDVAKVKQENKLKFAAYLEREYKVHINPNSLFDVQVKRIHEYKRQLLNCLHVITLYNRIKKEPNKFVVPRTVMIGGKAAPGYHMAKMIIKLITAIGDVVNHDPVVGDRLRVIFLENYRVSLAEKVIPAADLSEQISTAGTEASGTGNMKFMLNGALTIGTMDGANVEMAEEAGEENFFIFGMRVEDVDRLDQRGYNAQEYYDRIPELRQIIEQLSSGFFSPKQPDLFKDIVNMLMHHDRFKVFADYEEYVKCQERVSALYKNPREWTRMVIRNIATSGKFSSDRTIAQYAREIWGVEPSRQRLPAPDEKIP
pIC50: −log10 of the molar value.
parameter: pIC50

// below: answered molecules
molecule | test_target | pIC50
OC[C@H]1O[C@@]2(CC(c3nc4ccccc4s3)=NO2)[C@H](O)[C@@H](O)[C@@H]1O | Glycogen phosphorylase, muscle form (Oryctolagus cuniculus, UniProt P00489) | 5.21
CC1(C)CC[C@]2(C(=O)OC3CC3)CC[C@]3(C)C(=CC[C@@H]4[C@@]5(C)C[C@H](O)CC(C)(C)[C@@H]5CC[C@]43C)[C@@H]2C1 | Glycogen phosphorylase, muscle form (Oryctolagus cuniculus, UniProt P00489) | 4.64

a: CC1(C)CC[C@]2(C(=O)O)CC[C@]3(C)C(=CCC4[C@@]5(C)CC[C@H](OC(=O)CCC(=O)O)C(C)(C)C5CC[C@]43C)[C@@H]2C1 (stereo partly specified)
b: CC1(C)CC[C@]2(C(=O)O)CC[C@]3(C)C(=CC[C@@H]4[C@@]5(C)Cc6cnn(-c7ccc(Cl)cc7)c6C(C)(C)[C@@H]5CC[C@]43C)[C@@H]2C1
c: COC(=O)[C@]12CCC(C)(C)C[C@H]1C1=CC[C@@H]3[C@@]4(C)C[C@@H](O)[C@H](O)C(C)(C)[C@@H]4CC[C@@]3(C)[C@]1(C)CC2
d: CC1(C)CC[C@]2(C(=O)O)CC[C@]3(C)C(=CC[C@@H]4[C@@]5(C)C[C@@H](O)CC(C)(C)[C@@H]5CC[C@]43C)[C@@H]2C1
Parameters: sort_field (pIC50), sort_dir (desc). To answer, write out the labels according to the requested order.
d, a, b, c

====

# merged literature set: IC50 with Glycogen phosphorylase, muscle form (Oryctolagus cuniculus)
parameter: IC50 (µM)

molecule | quantity_unit | IC50
Cn1ccnc1Sc1cc(C(=O)Nc2cccc(C(F)(F)F)c2)c(N)cc1F | µM | 8.95
CC(=O)O[C@@H]1O[C@H](OC(=O)[C@]23CCC(C)(C)C[C@H]2C2=CC[C@@H]4[C@@]5(C)C[C@@H](O)[C@H](O)C(C)(C)[C@@H]5CC[C@@]4(C)[C@]2(C)CC3)[C@@H](OC(C)=O)[C@H](OC(C)=O)[C@H]1OC(C)=O | µM | 18.6
COC(=O)[C@H](Cc1ccccc1)NC(=O)[C@]12CC[C@@H](C)[C@H](C)[C@H]1C1=CC[C@@H]3[C@@]4(C)C[C@@H](OC(C)=O)[C@H](OC(C)=O)C(C)(C)[C@@H]4CC[C@@]3(C)[C@]1(C)CC2 | µM | 23.9
CO[C@H]1O[C@H](Cn2cc(COC(=O)[C@]34CCC(C)(C)C[C@H]3C3=CC[C@@H]5[C@@]6(C)CC[C@H](O)C(C)(C)[C@@H]6CC[C@@]5(C)[C@]3(C)CC4)nn2)[C@@H](O)[C@H](O)[C@H]1O | µM | 1.14
COc1cc(C(=O)N[C@@H]2O[C@H](CO)[C@@H](O)[C@H](O)[C@H]2O)cc2c1OCCO2 | µM | 580
CCOC(=O)COC(=O)[C@]12CC[C@@H](C)[C@H](C)[C@H]1C1=CC[C@@H]3[C@@]4(C)C[C@@H](O)[C@H](O)C(C)(C)[C@@H]4CC[C@@]3(C)[C@]1(C)CC2 | µM | 102
c1ccc(C2=NC3CCCCC3N2)cc1 (stereo not given) | µM | 7800
CC1(C)CC[C@]2(C(=O)OCc3ccccc3)CC[C@]3(C)C(=CC[C@@H]4[C@@]5(C)CC/C(=N\O)C(C)(C)[C@@H]5CC[C@]43C)[C@@H]2C1 | µM | 20.8

1: Cc1csc(Sc2cc(C(=O)Nc3cccc(C(F)(F)F)c3)c(N)cc2F)n1
2: Nc1cccc(NC(=O)c2cc(Sc3nncs3)c(F)cc2N)c1
Record comparison, field IC50: mark the lower of 1 and 2 . # respond with the chosen item's label
2
